Task for the reader: assign each of the following compounds its reported growth.
- Tested on: MDA-MB-435 melanoma
- protocol.description: NCI-60 one-dose screen, 48 h (100 = growth as untreated, 0 = no growth, -100 = all killed)
- settings: 10 µM unless noted
The panel holds about 83,000 compounds, 20% with a hit somewhere; the sample as a whole holds those more often.
Respond numerically; units are % and should not be typed.

I would be grateful if you could share the reported growth for COC(=O)[C@H](C)NC(=O)c1ccc(NC(=O)c2[nH]c(C)c(Cl)c2Cl)c(OCCN)c1 .
104

How about Cn1cc(-c2nc(-c3c[nH]c4c(Cl)nccc34)cs2)c2ccccc21 ?
96.4

How about CO[C@]12C=C/C(=C(/C(=O)OCc3cccnc3)C(=O)CCCCCCCC[C@]3(OC)C=C/C(=C(/C(=O)OCc4cccnc4)C(=O)CCCCCCCC1)O3)O2 ?
-42.4

How about O=C1Nc2ccccc2/C1=C/c1cccn1CCCCCCn1c2ccccc2c(=O)c2ccccc21 ?
96.7

How about COc1cccc(C2C(C#N)=C(N)Oc3c2ccc2ccccc32)c1 (centres undefined) ?
6.77

How about N#C/C(=C/C=C/c1ccccc1)S(=O)c1ccccc1 (centres undefined) ?
-29.8

How about C[C@@H]1N=C(c2ccc(Cl)cc2Cl)Nc2nc3ccccn3c2C1=O ?
-16.6

How about COc1ccc(NC(=O)CSc2oc(-c3ccccc3)nc2S(=O)(=O)c2ccc(Cl)cc2)c(OC)c1 ?
86.6

How about O=C(Nc1ccc(Oc2cccc(F)c2)c(Cl)c1)c1cnccn1 ?
-21.2

How about CN(C)C(=S)NN=C(c1ccccn1)c1ccccn1 ?
41.4

How about COC(=O)c1cc(-c2cc(OC)c(OC)c(OC)c2)[nH]c1N/N=C/c1c(Cl)cccc1Cl ?
-2.15

How about O=C(c1ccc(F)cc1)C1CCN(CCn2c(=O)[nH]c3ccccc3c2=O)CC1 ?
104

How about Cc1cc(N2CCOCC2)nc(N(CCCNc2ccnc3cc(Cl)ccc23)Cc2ccc3c(c2)OCO3)n1 ?
-45.1

How about N#C/C(=N\Nc1ccccc1)C(=O)Nc1cc(-c2ccccc2)nn1-c1ccccc1 ?
30.3

How about CCCS(=O)(=O)Nc1cccc(Nc2ncnc3cc(NC(=O)CCl)ccc23)c1Cl ?
-46.9

How about CC(C)CCc1nc2ccc(NCc3ccc(OCCN4CCC(C)CC4)cc3)cc2[nH]1 ?
89.2

How about C#CCOc1cccc(Nc2c(Cl)c(CCl)nc3ccc(Oc4ccccc4)cc23)c1 ?
15.6

How about C(=N\Nc1nnc2n1N=C(c1ccccc1)CS2)/c1ccc(OCc2ccccc2)cc1 ?
99.8

How about CC(C)=CCC[C@](C)(O)C1CC[C@]2(C)[C@@H]1CC[C@@H]1[C@@]3(C)CC/C(=N\OCCC#N)C(C)(C)[C@@H]3CC[C@]12C (some centres undefined) ?
87.7

###

- Tested on: UO-31 renal
- protocol.description: NCI-60 one-dose screen, 48 h (100 = growth as untreated, 0 = no growth, -100 = all killed)
- settings: 10 µM unless noted
The panel holds about 83,000 compounds, 20% with a hit somewhere; the sample as a whole holds those more often.
readout.type: growth (%)
Respond numerically; units are % and should not be typed.

I would be grateful if you could share the reported growth for COc1ccc(-c2ccc(-c3ccc(C(=N)N)nc3)s2)cc1 .
-96.8

How about CCC(=C(c1ccc(OCCN(CC)CC)cc1)c1ccc(OCCN(CC)CC)cc1)c1ccc(Cl)cc1 ?
-81.2

How about O=S(=O)(c1ccc(NCSc2nc3ccccc3s2)cc1)c1ccc(NCSc2nc3ccccc3s2)cc1 ?
60.2

How about Cc1c(C(=O)C(SC(=S)N2CCOCC2)SC(=S)N2CCOCC2)nnn1-c1ccc([N+](=O)[O-])cc1 ?
74.7

How about COCCNC(=O)Cc1cc(-c2ccc(Cl)cc2)n(-c2ccccc2)c1C ?
71.1

###

- Test system: HCT-116 colon
- protocol.description: NCI-60 one-dose screen, 48 h (100 = growth as untreated, 0 = no growth, -100 = all killed)
- settings: 10 µM unless noted
This is part of a sample that, as a whole, favours compounds with a hit. Of some 83,000 tested, about 20% had one in any assay.
Assign Condition met whenever growth does not fall below 80%; assign Condition not met whenever it does.

Does growth meet or surpass 80% for COc1cc(-c2c(-c3ccccc3)c[nH]c2C(=O)NCCCO)c(OC)c2c1OCO2 ?
Condition met

How about CN(C)c1ccc(/C=C/C2=[N+](C)c3ccccc3C2(C)C)cc1 ?
Condition not met

How about CCOC(=O)c1ccc2c(c1)[n+](=O)c(C(C)=O)c(C(F)(F)F)n2[O-] ?
Condition not met

How about CC(C)(C)c1ccc(C(=O)Nc2sc3c(c2C#N)CCC(=O)C3)cc1 ?
Condition not met

How about COc1ccc(-c2cc(-c3ccc(N(C)C)cc3)nc(NC(=O)c3cccnc3)n2)cc1 ?
Condition met

How about CCNCCNc1c(C)c(-c2ccc(C(F)(F)F)cc2)c(C#N)c2nc3ccccc3n12 ?
Condition met

How about CCC(=C(c1ccc(OCCN(CC)CC)cc1)c1ccc(OCCN(CC)CC)cc1)c1ccc(Cl)cc1 ?
Condition not met

How about CCOC(=O)c1c(NC(=S)Nc2ccc([N+](=O)[O-])cc2)sc2c1CCCCC2 ?
Condition not met

How about COCCn1cc(-c2nc(-c3cc4cccnc4n3C)cs2)c2cc(OC)ccc21 ?
Condition not met

How about C=C(C)[C@@H]1CCC[C@]2(C(=O)OC)CC[C@]3(C)[C@@H](CC[C@@H]4[C@@]5(C)CCCNC(C)(C)[C@@H]5CC[C@]43C)[C@@H]12 ?
Condition met

How about N/C(=N\c1nc2ccccc2s1)NC(=O)Nc1ccccc1 ?
Condition not met

How about c1ccc2[nH]c(-c3ccc(-c4nccc5c4[nH]c4ccccc45)cc3)nc2c1 ?
Condition not met

How about O=C(/C=C/c1ccc(Cl)cc1)c1ccc(-n2cc(CN3CCN(c4cc5c(cc4F)c(=O)c(C(=O)O)cn5C4CC4)CC3)nn2)cc1 ?
Condition not met

How about COc1cc2cc(Oc3ccc(NC(=O)Nc4ccc(Cl)c(Cl)c4)cc3)c(C)nc2cc1OCCN1CCCCC1 ?
Condition met

How about [2H]C([2H])([2H])Oc1ccc(/C=C/C(=O)/C=C(O)/C=C/c2ccc(OC([2H])([2H])[2H])c(OC([2H])([2H])[2H])c2)cc1OC([2H])([2H])[2H] ?
Condition not met

How about COc1ccccc1-c1nc2ccc3[nH]ncc3c2c2c1CCCC2 ?
Condition not met

How about CC(=O)Cc1nsc(NC(=O)c2cc(-c3cc(Cl)ccc3Cl)oc2C)n1 ?
Condition met

###

- Test system: SF-295 CNS
- protocol.description: NCI-60 one-dose screen, 48 h (100 = growth as untreated, 0 = no growth, -100 = all killed)
- settings: 10 µM unless noted
About 83,000 compounds went through this panel and 20% of them were active in at least one assay; those are over-represented in the sample as a whole.
Task for the reader: assign each of the following molecules its reported growth.
Respond numerically; units are % and should not be typed.

I would be grateful if you could share the reported growth for O=c1cc(-c2nccc3c2[nH]c2ccccc23)c2cc(Cl)ccc2o1 .
13.9

How about COc1cc2cc(Oc3ccc(NC(=O)Nc4ccc(F)c(C(F)(F)F)c4)cc3)c(C)nc2cc1OCCN1CCCCC1 ?
72.8

How about Nc1c(C(=O)c2ccc(Cl)cc2)sc(Nc2ccccc2)c1-c1nc2ccccc2s1 ?
-24.4

How about CO[C@H]1/C=C/O[C@@]2(C)Oc3c(C)c(O)c4c(O)c(c5c(nc6cc(C)ccn65)c4c3C2=O)NC(=O)/C(C)=C\C=C\[C@H](C)[C@H](O)[C@@H](C)C(O)[C@@H](C)[C@H](OC(C)=O)[C@@H]1C (stereo partly drawn) ?
102

How about O=C(CSc1nnc(-c2ccc(Cl)c(Cl)c2)n1-c1ccccc1)Nc1ccc(C(=O)/C=C/c2ccc(Cl)cc2)cc1 ?
98.2

How about C#CCOc1cccc(Nc2c(Cl)c(CCl)nc3ccc(Oc4ccccc4)cc23)c1 ?
88.7

How about Cc1[nH]c(C2CC(c3ccc(C(F)(F)F)c(F)c3)=NN2C)c(C)c1C(=O)NCC(F)(F)F (stereo not drawn) ?
94.9

How about COc1ccc(C2CC(=O)Oc3c(OC)c4c(c(OC)c32)OCO4)cc1 (stereo not drawn) ?
102

###

- Tested on: T-47D breast
- protocol.description: NCI-60 one-dose screen, 48 h (100 = growth as untreated, 0 = no growth, -100 = all killed)
- settings: 10 µM unless noted
- Method: Growth inhibition of the T-47D human tumor cell line is measured as a screen for anti-cancer activity. Cells are grown in 96 well plates and exposed to the test compound for 48 hours. Compounds are tested at a single concentration, which is 10^-5 M for most compounds. The reported endpoint is percent growth (GI% or GIPRCNT), where numbers from 0 - 100% represent growth inhibition, and numbers from -100% - 0 represent cell death. For example, a value of 40 represents 60% growth inhibition. […]
About 83,000 compounds went through this panel and 20% of them were active in at least one assay; those are over-represented in the sample as a whole. Calls of active or inactive are those of the source. How the source made its calls: active means growth percent below 10; inactive means the rest.
Task for the reader: assign each of the following molecules its reported growth.

I would be grateful if you could share the reported growth for CC(C)(C#N)c1cc(C(=O)Nc2cc(Nc3ncccc3-c3ncnc4nc[nH]c34)ccc2F)cc(C(F)(F)F)c1 .
52% (inactive)

How about CCOC(=O)CC1CSC(N/N=C(/C)c2cccc(C(F)(F)F)c2)=N1 (stereo not given) ?
104% (inactive)

How about O=C1C(Nc2ccc(Br)cc2)=C(I)C(=O)c2ncccc21 ?
-41.3% (active)

How about O=C1C(c2c(O)[nH]c3ncccc23)=Nc2ccccc21 ?
48.4% (inactive)

How about CN(C)C(=O)OCc1ccc2c(Cl)cc(Cl)c(O)c2n1 ?
37.8% (inactive)

Origin of the recorded values: PubChem BioAssay (NCI)
